Sourced from ChEMBL document CHEMBL1938274

measurement protocol: Apparent oral bioavailability in rat at 2 mg/kg
Type: ADME, organism-based
particulars: in vivo, read-out: Fapp
measure name: bioavailability (%)

* C[C@H](c1nc2ncccc2c(=O)n1-c1ccc(Cl)cc1)N(CC1CCS(=O)(=O)CC1)C(=O)Cc1ccc(F)c(C(F)(F)F)c1 | 69

====

Catalogue of clearance readings, one per entry.
measurement protocol: Clearance in Beagle dog at 0.5 mg/kg, iv
Format: ADME, organism-based, Canis lupus familiaris
Design: dose 0.5 mg/kg, route intravenous
particulars: in vivo
measure name: clearance

- CCS(=O)(=O)CCN(C(=O)Cc1ccc(F)c(C(F)(F)F)c1)[C@H](C)c1nc2ncccc2c(=O)n1-c1ccc(C#N)cc1: 16.7 mL/min/kg
- C[C@H](c1nc2ncccc2c(=O)n1-c1ccc(C#N)cc1)N(CC1CCS(=O)(=O)CC1)C(=O)Cc1ccc(F)c(C(F)(F)F)c1: 8.33 mL/min/kg
- C[C@H](c1nc2ncccc2c(=O)n1-c1ccc(F)cc1)N(CC1CCS(=O)(=O)CC1)C(=O)Cc1ccc(F)c(C(F)(F)F)c1: 14.8 mL/min/kg
- C[C@H](c1nc2ncccc2c(=O)n1-c1ccc(Cl)cc1)N(CC1CCS(=O)(=O)CC1)C(=O)Cc1ccc(F)c(C(F)(F)F)c1: 25 mL/min/kg

====

Catalogue of Vd readings, one per entry.
measurement protocol: Volume of distribution at steady state in Beagle dog at 0.5 mg/kg, iv
Type: ADME, organism-based, Canis lupus familiaris
Set-up: dose 0.5 mg/kg, route intravenous
particulars: in vivo, read-out: Vdss
measure name: Vd (L/kg)

- C[C@H](c1nc2ncccc2c(=O)n1-c1ccc(Cl)cc1)N(CC1CCS(=O)(=O)CC1)C(=O)Cc1ccc(F)c(C(F)(F)F)c1: 1.4
- C[C@H](c1nc2ncccc2c(=O)n1-c1ccc(F)cc1)N(CC1CCS(=O)(=O)CC1)C(=O)Cc1ccc(F)c(C(F)(F)F)c1: 1.3

====

measurement protocol: Mean residence time in cynomolgus monkey at 0.5 mg/kg, iv
Format: ADME, organism-based, Macaca fascicularis
Set-up: dose 0.5 mg/kg, route intravenous
particulars: in vivo
measure name: MRT (h)

• C[C@H](c1nc2ncccc2c(=O)n1-c1ccc(F)cc1)N(CC1CCS(=O)(=O)CC1)C(=O)Cc1ccc(F)c(C(F)(F)F)c1 = 6.4
• C[C@H](c1nc2ncccc2c(=O)n1-c1ccc(Cl)cc1)N(CC1CCS(=O)(=O)CC1)C(=O)Cc1ccc(F)c(C(F)(F)F)c1 = 8.7
• CCS(=O)(=O)CCN(C(=O)Cc1ccc(F)c(C(F)(F)F)c1)[C@H](C)c1nc2ncccc2c(=O)n1-c1ccc(C#N)cc1 = 1.7

====

measurement protocol: Apparent oral bioavailability in Beagle dog at 2 mg/kg
Assay type: ADME, organism-based, Canis lupus familiaris
particulars: in vivo, read-out: Fapp
measure name: bioavailability (%)

• CCS(=O)(=O)CCN(C(=O)Cc1ccc(F)c(C(F)(F)F)c1)[C@H](C)c1nc2ncccc2c(=O)n1-c1ccc(C#N)cc1 = 69
• C[C@H](c1nc2ncccc2c(=O)n1-c1ccc(C#N)cc1)N(CC1CCS(=O)(=O)CC1)C(=O)Cc1ccc(F)c(C(F)(F)F)c1 = 1.6

====

Tested on: PBL
measurement protocol: Toxicity in human PBL assessed as chromosomal aberrations at 7.81 to 1000 ug/mL in the presence of S9
Type: cell-based
measure name: Activity

- CCS(=O)(=O)CCN(C(=O)Cc1ccc(F)c(C(F)(F)F)c1)[C@H](C)c1nc2ncccc2c(=O)n1-c1ccc(C#N)cc1: Toxic
- CCS(=O)(=O)CCN(C(=O)Cc1ccc(F)c(C(F)(F)F)c1)[C@H](C)c1nc2ncccc2c(=O)n1-c1ccc(Cl)cc1: Non-toxic
- CCS(=O)(=O)CCN(C(=O)Cc1ccc(F)c(C(F)(F)F)c1)[C@H](C)c1nc2ncccc2c(=O)n1-c1ccc(F)cc1: Non-toxic
- C[C@H](c1nc2ncccc2c(=O)n1-c1ccc(C#N)cc1)N(CC1CCS(=O)(=O)CC1)C(=O)Cc1ccc(F)c(C(F)(F)F)c1: Non-toxic
- C[C@H](c1nc2ncccc2c(=O)n1-c1ccc(C#N)cc1)N(CC1CCS(=O)(=O)CC1)C(=O)Cc1ccc(C(F)(F)F)c(F)c1: Toxic
- CCS(=O)(=O)CCN(C(=O)Cc1ccc(F)c(C(F)(F)F)c1)[C@H](C)c1nc2ccccn2c(=O)c1-c1ccc(C#N)cc1: Toxic
- C[C@H](c1nc2ncccc2c(=O)n1-c1ccc(F)cc1)N(CC1CCS(=O)(=O)CC1)C(=O)Cc1ccc(F)c(C(F)(F)F)c1: Non-toxic
- CCS(=O)(=O)CCN(C(=O)Cc1ccc(C(F)(F)F)c(F)c1)[C@H](C)c1nc2ncccc2c(=O)n1-c1ccc(C#N)cc1: Toxic
- C[C@H](c1nc2ncccc2c(=O)n1-c1ccc(Cl)cc1)N(CC1CCS(=O)(=O)CC1)C(=O)Cc1ccc(C(F)(F)F)c(F)c1: Non-toxic
- C[C@H](c1nc2ccccn2c(=O)c1-c1ccc(C#N)cc1)N(CC1CCS(=O)(=O)CC1)C(=O)Cc1ccc(OC(F)(F)F)cc1: Toxic
- CCS(=O)(=O)CCN(C(=O)Cc1ccc(C(F)(F)F)c(F)c1)[C@H](C)c1nc2ncccc2c(=O)n1-c1ccc(Cl)cc1: Non-toxic
- CCS(=O)(=O)CCN(C(=O)Cc1ccc(C(F)(F)F)c(F)c1)[C@H](C)c1nc2ncccc2c(=O)n1-c1ccc(F)cc1: Non-toxic
- C[C@H](c1nc2ncccc2c(=O)n1-c1ccc(F)cc1)N(CC1CCS(=O)(=O)CC1)C(=O)Cc1ccc(C(F)(F)F)c(F)c1: Non-toxic
- C[C@H](c1nc2ncccc2c(=O)n1-c1ccc(Cl)cc1)N(CC1CCS(=O)(=O)CC1)C(=O)Cc1ccc(F)c(C(F)(F)F)c1: Non-toxic
- C[C@H](c1nc2ncccc2c(=O)n1-c1ccc(C#N)cc1)N(CCS(C)(=O)=O)C(=O)Cc1ccc(F)c(C(F)(F)F)c1: Toxic

====

measurement protocol: Half life in mouse at 1 mg/kg, iv
Assay type: ADME, organism-based
Parameters: dose 1 mg/kg, route intravenous
particulars: in vivo
measure name: half-life

• C[C@H](c1nc2ncccc2c(=O)n1-c1ccc(Cl)cc1)N(CC1CCS(=O)(=O)CC1)C(=O)Cc1ccc(F)c(C(F)(F)F)c1 = 4 h

====

measurement protocol: Volume of distribution at steady state in rat at 0.5 mg/kg, iv
Assay type: ADME, organism-based
Parameters: dose 0.5 mg/kg, route intravenous
particulars: in vivo, read-out: Vdss
Catalogue of Vd readings, one per entry.
measure name: Vd (L/kg)

* C[C@H](c1nc2ncccc2c(=O)n1-c1ccc(Cl)cc1)N(CC1CCS(=O)(=O)CC1)C(=O)Cc1ccc(F)c(C(F)(F)F)c1 | 1.9
* C[C@H](c1nc2ncccc2c(=O)n1-c1ccc(F)cc1)N(CC1CCS(=O)(=O)CC1)C(=O)Cc1ccc(F)c(C(F)(F)F)c1 | 5

====

Catalogue of MRT readings, one per entry.
measurement protocol: Mean residence time in rat at 0.5 mg/kg, iv
Type: ADME, organism-based
Set-up: dose 0.5 mg/kg, route intravenous
particulars: in vivo
measure name: MRT (h)

* C[C@H](c1nc2ncccc2c(=O)n1-c1ccc(Cl)cc1)N(CC1CCS(=O)(=O)CC1)C(=O)Cc1ccc(F)c(C(F)(F)F)c1 | 3.5
* C[C@H](c1nc2ncccc2c(=O)n1-c1ccc(F)cc1)N(CC1CCS(=O)(=O)CC1)C(=O)Cc1ccc(F)c(C(F)(F)F)c1 | 2.4

====

Test system: PBL
measurement protocol: Toxicity in human PBL assessed as chromosomal aberrations at 7.81 to 1000 ug/mL
Format: cell-based
measure name: Activity

• C[C@H](c1nc2ncccc2c(=O)n1-c1ccc(F)cc1)N(CC1CCS(=O)(=O)CC1)C(=O)Cc1ccc(C(F)(F)F)c(F)c1 = Non-toxic
• C[C@H](c1nc2ncccc2c(=O)n1-c1ccc(C#N)cc1)N(CC1CCS(=O)(=O)CC1)C(=O)Cc1ccc(F)c(C(F)(F)F)c1 = Non-toxic
• C[C@H](c1nc2ncccc2c(=O)n1-c1ccc(C#N)cc1)N(CC1CCS(=O)(=O)CC1)C(=O)Cc1ccc(C(F)(F)F)c(F)c1 = Toxic
• C[C@H](c1nc2ncccc2c(=O)n1-c1ccc(Cl)cc1)N(CC1CCS(=O)(=O)CC1)C(=O)Cc1ccc(C(F)(F)F)c(F)c1 = Non-toxic
• CCS(=O)(=O)CCN(C(=O)Cc1ccc(F)c(C(F)(F)F)c1)[C@H](C)c1nc2ccccn2c(=O)c1-c1ccc(C#N)cc1 = Toxic
• CCS(=O)(=O)CCN(C(=O)Cc1ccc(C(F)(F)F)c(F)c1)[C@H](C)c1nc2ncccc2c(=O)n1-c1ccc(Cl)cc1 = Non-toxic
• CCS(=O)(=O)CCN(C(=O)Cc1ccc(F)c(C(F)(F)F)c1)[C@H](C)c1nc2ncccc2c(=O)n1-c1ccc(Cl)cc1 = Non-toxic
• CCS(=O)(=O)CCN(C(=O)Cc1ccc(C(F)(F)F)c(F)c1)[C@H](C)c1nc2ncccc2c(=O)n1-c1ccc(C#N)cc1 = Toxic
• C[C@H](c1nc2ncccc2c(=O)n1-c1ccc(C#N)cc1)N(CCS(C)(=O)=O)C(=O)Cc1ccc(F)c(C(F)(F)F)c1 = Toxic
• CCS(=O)(=O)CCN(C(=O)Cc1ccc(F)c(C(F)(F)F)c1)[C@H](C)c1nc2ncccc2c(=O)n1-c1ccc(F)cc1 = Non-toxic
• C[C@H](c1nc2ncccc2c(=O)n1-c1ccc(F)cc1)N(CC1CCS(=O)(=O)CC1)C(=O)Cc1ccc(F)c(C(F)(F)F)c1 = Non-toxic
• C[C@H](c1nc2ncccc2c(=O)n1-c1ccc(Cl)cc1)N(CC1CCS(=O)(=O)CC1)C(=O)Cc1ccc(F)c(C(F)(F)F)c1 = Non-toxic
• C[C@H](c1nc2ccccn2c(=O)c1-c1ccc(C#N)cc1)N(CC1CCS(=O)(=O)CC1)C(=O)Cc1ccc(OC(F)(F)F)cc1 = Toxic
• CCS(=O)(=O)CCN(C(=O)Cc1ccc(C(F)(F)F)c(F)c1)[C@H](C)c1nc2ncccc2c(=O)n1-c1ccc(F)cc1 = Non-toxic
• CCS(=O)(=O)CCN(C(=O)Cc1ccc(F)c(C(F)(F)F)c1)[C@H](C)c1nc2ncccc2c(=O)n1-c1ccc(C#N)cc1 = Toxic
